system.tested: pooled human IgG (human); note: test concentration or dose not given here
assay.explanation: cell-based or functional assay
measured.attribute: Enzyme Activity Endpoint Assay (purified): Fc (ng/µL)
# unit: ng/µL | format: bare number

Query (binder): PRT-202 (enzyme) MEVVEVWPYGQNPNGKTEILSQTEDSESLQRLRDIEDFQAEKKKQNVVYTKWLDGVDVKDHDFRKIVDGNIAYYATPLLNGRGFYDINKDFNRDSDKCAAAVAANMFHYWLDINRDNVDRFLRQNPEKHGIIELPDGQLKLSDFLNTYESDYGYRDKSKLFDFISNNFNGPVWTDKLLDNYINGYAYNYKYGRTIEDPTKNTSKINFFKKVFNEKILTNIHSIRNQNEFSDLLSEALYTGKAIGLSYGPAGLRHSLGHIISVWGADLDADGNVVAIYVTDSDDKKLTIGDERVGLKRYKISTDDEGRLRLTAYEETDNTGGEIRGLYTLDTGKQAWADYFDKTEQTGTDQAEQLEHHHHHH ; field requested: Enzyme Activity Endpoint Assay (purified): Fc
402

Query (binder): PRT-198 (enzyme) MEVVEVWPYGQNPNGKTEILSQTEDSESLQRLRDIEDFQAEKKKQGVVYTKWLDGVDVKDHDFRKIVDGNIAYYATPLLNGRGFYDINKDFNRDSDKCAAAVAANMFHYWLDINRDNVDRFLRQNPEKHGIIELPDGQLKLSDFLNTYESDHGYRDKSKLFDFISNNFNGPVWTDKLLDNYINGYAYNYKYGRTIEDPTKNTSKINFFKEVFNEKILTNNHSIRNQNEFSDLLSEALYTGKAIGLSYGPAGLRHSLGHIISVWGADLDADGNVVAIYVTDSDDKKLTIGDERVGLKRYKISTDDENRLRLTAYEETHNTGGQIRGLYTLDTGKQAWADYFDKTEQTGTDQAEQLEHHHHHH ; field requested: Enzyme Activity Endpoint Assay (purified): Fc
0
